# inhibition at 100 µM per entry
biological target: hGSTP1-1 (Homo sapiens); construct: made in house; host or cells: E. coli BL21 (DE3); test: hGSTP1-1 enzyme activity/inhibition assay (CDNB-GSH conjugation, 340 nm); type: biochemical; conditions: recombinant hGSTP1-1; compound at final concentration of 100 μM; 25 °C
Sequence (P09211 2-210 limits assumed): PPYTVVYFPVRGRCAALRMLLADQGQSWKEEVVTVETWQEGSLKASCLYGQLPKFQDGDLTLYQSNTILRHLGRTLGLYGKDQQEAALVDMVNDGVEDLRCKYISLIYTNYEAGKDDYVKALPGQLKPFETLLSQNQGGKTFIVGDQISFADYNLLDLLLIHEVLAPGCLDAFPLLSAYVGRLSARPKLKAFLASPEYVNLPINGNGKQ

These solved cases illustrate the format of a correct answer.
### Prompt Bench note: what inhibition at 100 µM did `O=C(/C=C/c1ccc(O)c(O)c1)/C=C/c1ccc(O)c(O)c1` show?
### Response 54.8%

### Prompt Which inhibition at 100 µM is listed for `COc1cc(C=C2CCCC(=Cc3ccc(O)c(OC)c3)C2=O)ccc1O` ?
### Response 40%

### Prompt Dear colleague, I am looking for the recorded inhibition at 100 µM of the following compound: `COc1ccc(/C=C2\CCC/C(=C\c3ccc(OC)cc3)C2=O)cc1`
### Response 8.5%

### Prompt Name the recorded inhibition at 100 µM for `COc1ccc(/C=C/C(=O)/C=C/c2ccc(OC)c(OC)c2)cc1OC` .
### Response 44.2%

### Prompt Reported inhibition at 100 µM, compound `O=C1/C(=C/c2ccc(F)cc2)CCC/C1=C\c1ccc(F)cc1` : ____
### Response 8.4%

New cases:
### Prompt # input compound: `O=C(C=Cc1ccc(O)cc1)C=Cc1ccc(O)cc1` ; wanted: its inhibition at 100 µM
### Response ~95%

### Prompt What value of inhibition at 100 µM has been reported for the following compound? `O=C(/C=C/c1ccc(F)cc1)/C=C/c1ccc(F)cc1`
### Response ~95%
